Hey, just so you know, these numbers are from patent US20060160703A1.

Provide the reported herbicidal effect in percent, Summer barley of each item.
Tested on: Summer barley
method: Greenhouse trial, post-emergence, safener one day before (Example 2)
Format: in vivo
cond: herbicide 0.100 kg/ha, combinations: safener 100 g/ha one day before
A number alone suffices; assume %.

Data request: Give the measured herbicidal effect in percent, Summer barley for CCc1cc(Br)cc(CC)c1C1(Cl)C(=O)NC2(CCCCC2)C1=O (stereo not shown)
Data returned: 10

Data request: Annotate the compound Cc1cc(-c2ccc(Cl)cc2)cc(C)c1C1(Cl)C(=O)N2CCCCN2C1=O with its measured herbicidal effect in percent, Summer barley.
Data returned: 80

Data request: For the compound Cc1cc(-c2ccc(Cl)cc2)cc(C)c1C1(Cl)C(=O)N2CCOCCN2C1=O , report herbicidal effect in percent, Summer barley.
Data returned: 97

Data request: Give me measured herbicidal effect in percent, Summer barley, please, for this compound: CCc1cc(Cl)cc(Br)c1C1(Cl)C(=O)NC2(CCCCC2)C1=O (stereo not shown)
Data returned: 92
